These measurements were taken from the supplement of paper PMC10567573.

B1: NET1 (parent)
chain: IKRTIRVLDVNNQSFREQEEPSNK

Variants of: B1
Assay: protein stability index of a GFP-peptide fusion (GPS, HEK-293T) (PSI 1-6); higher = more stable;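 note: lentivirally expressed fusions sorted by FACS into six bins by GFP to DsRed ratio, PSI derived from sequencing read proportions per bin multiplied by bin number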
Conditions: c terminus: a fixed tail appended
Quantity Kind: protein stability index
Please reply with the value in numeric form only.

Examples with their reported protein stability index follow.
[[record]]
variant_name = "S22Q"
quantity_kind = "protein stability index"
obs_value = 2.8

[[record]]
variant_name = "N12D"
quantity_kind = "protein stability index"
obs_value = 4.21

[[record]]
variant_name = "N23Y"
quantity_kind = "protein stability index"
obs_value = 2.07

[[record]]
variant_name = "I1S"
quantity_kind = "protein stability index"
obs_value = 3.99

[[record]]
variant_name = "Q13L"
quantity_kind = "protein stability index"
obs_value = 2.33

[[record]]
variant_name = "K24C"
quantity_kind = "protein stability index"
obs_value = 3.4


Ask: Request the reported protein stability index associated with Q18D
Reply: 4.15

Ask: Reported protein stability index for T4W : what is it?
Reply: 2.38

Ask: Reported protein stability index, variant R16D : ____
Reply: 4.47

Ask: Name the recorded protein stability index for L8R .
Reply: 4.68

Ask: Dear colleague, I am looking for the recorded protein stability index of the following variant: R6A
Reply: 2.88
